Source listed as PubChem BioAssay AID1996.

Conditions: buffer; pH 7.4; 200.0 µM
observable: solubility kinetic

Some compounds with recorded solubility kinetic:
In [3]: df
Out[3]:
                                   compound          observable  measured_value
0    CC(=O)Nc1ccc(OCCC[n+]2ccccc2)cc1.[Cl-]  solubility kinetic      > 46 µg/mL
1        COc1ccc(C(=O)Nc2ccc3[nH]ccc3c2)cc1  solubility kinetic    > 39.9 µg/mL
2       S=c1[nH]nc(-c2ccco2)n1-c1ccc(Cl)cc1  solubility kinetic    > 41.7 µg/mL
3            CN(C)/C=C1\Oc2ccc3ccccc3c2C1=O  solubility kinetic     < 0.5 µg/mL
4  Cc1ccc(CC(=O)NCCc2ccc(S(N)(=O)=O)cc2)cc1  solubility kinetic    > 49.9 µg/mL
5  CC(O)c1ccc(OCCN(C)c2ccccn2)cc1 (centres undefined)  solubility kinetic    > 40.9 µg/mL
6  Cl.NC(=NCCc1ccccc1)c1cccc([N+](=O)[O-])c1  solubility kinetic    > 45.9 µg/mL
7  CCC(Oc1ccccc1F)C(=O)NCCCn1ccnc1 (centres undefined)  solubility kinetic    > 45.8 µg/mL

Let's switch to this compound now.
Item Cc1cccc(/C=N/NC(=O)c2ccncc2)n1 has what recorded solubility kinetic? > 36 µg/mL
